Where do the numbers come from? From PubChem BioAssay AID2060328.

IC50 values by entry
System: MDA-MB-231 multicell spheroids, viability (%T/C)
Protocol Description: Anticancer human tumor MDA-MB-231 cell line growth inhibition [IpAb];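 further: viability read after seven days of drug exposure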
Cond: curve of first compound; second compound 0.0316 µM
Property Name: IC50

Compound: CC1(C)CCC(CN2CCN(c3ccc(C(=O)NS(=O)(=O)c4ccc(NCC5CCOCC5)c([N+](=O)[O-])c4)c(Oc4cnc5[nH]ccc5c4)c3)CC2)=C(c2ccc(Cl)cc2)C1 + CCN1CCN(Cc2ccc(Nc3ncc(F)c(-c4cc(F)c5nc(C)n(C(C)C)c5c4)n3)nc2)CC1
Result: 5150 nM

Compound: Cc1nc(NC(=O)N2CCCC2C(N)=O)sc1-c1ccnc(C(C)(C)C(F)(F)F)c1 (stereo not drawn) + CCN1CCN(Cc2ccc(Nc3ncc(F)c(-c4cc(F)c5nc(C)n(C(C)C)c5c4)n3)nc2)CC1
Result: 159 nM

Compound: CCCS(=O)(=O)Nc1ccc(F)c(C(=O)c2c[nH]c3ncc(-c4ccc(Cl)cc4)cc23)c1F + CCN1CCN(Cc2ccc(Nc3ncc(F)c(-c4cc(F)c5nc(C)n(C(C)C)c5c4)n3)nc2)CC1
Result: 4640 nM

Compound: COc1c(OCCCN2CCOCC2)ccc2c3n(c(=NC(=O)c4cnc(N)nc4)nc12)CCN3 + CCN1CCN(Cc2ccc(Nc3ncc(F)c(-c4cc(F)c5nc(C)n(C(C)C)c5c4)n3)nc2)CC1
Result: 14.6 nM

Compound: CC(C)(C)c1cnc(CSc2cnc(NC(=O)C3CCNCC3)s2)o1 + CCN1CCN(Cc2ccc(Nc3ncc(F)c(-c4cc(F)c5nc(C)n(C(C)C)c5c4)n3)nc2)CC1
Result: 148 nM

Compound: Cn1ncc(Cl)c1-c1cc(C(=O)NC(CN)Cc2cccc(F)c2)sc1Cl (stereo not drawn) + CCN1CCN(Cc2ccc(Nc3ncc(F)c(-c4cc(F)c5nc(C)n(C(C)C)c5c4)n3)nc2)CC1
Result: 378 nM

Compound: Cn1nccc1Nc1nccc(-c2ccn(C(CO)c3ccc(Cl)c(F)c3)c(=O)c2)n1 (stereo not drawn) + CCN1CCN(Cc2ccc(Nc3ncc(F)c(-c4cc(F)c5nc(C)n(C(C)C)c5c4)n3)nc2)CC1
Result: < 31.6 nM

Compound: CC(=O)c1c(C)c2cnc(Nc3ccc(N4CCNCC4)cn3)nc2n(C2CCCC2)c1=O + CCN1CCN(Cc2ccc(Nc3ncc(F)c(-c4cc(F)c5nc(C)n(C(C)C)c5c4)n3)nc2)CC1
Result: 44.3 nM

----------
Test system: MDA-MB-231 multicell spheroids, viability (%T/C)
Protocol Description: Anticancer human tumor MDA-MB-231 cell line growth inhibition [IpAb];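 further: viability read after seven days of drug exposure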
Cond: second compound 0.01 µM; first compound 1 µM; stronger effect = lower value
Values of viability, T/C strictly less than 50% map to Criterion met, and values of at least 50% map to Criterion not met.

Compound: C=CC(=O)N1CCN(c2nc(=O)n(-c3c(C)ccnc3C(C)C)c3nc(-c4c(O)cccc4F)c(F)cc23)C(C)C1 (stereo not drawn) + CCN1CCN(Cc2ccc(Nc3ncc(F)c(-c4cc(F)c5nc(C)n(C(C)C)c5c4)n3)nc2)CC1
Qualitative Label: Criterion not met
--
Compound: CCCS(=O)(=O)Nc1ccc(F)c(C(=O)c2c[nH]c3ncc(-c4ccc(Cl)cc4)cc23)c1F + CCN1CCN(Cc2ccc(Nc3ncc(F)c(-c4cc(F)c5nc(C)n(C(C)C)c5c4)n3)nc2)CC1
Qualitative Label: Criterion not met
--
Compound: COc1c(OCCCN2CCOCC2)ccc2c3n(c(=NC(=O)c4cnc(N)nc4)nc12)CCN3 + CCN1CCN(Cc2ccc(Nc3ncc(F)c(-c4cc(F)c5nc(C)n(C(C)C)c5c4)n3)nc2)CC1
Qualitative Label: Criterion met
--
Compound: CC1(C)CCC(CN2CCN(c3ccc(C(=O)NS(=O)(=O)c4ccc(NCC5CCOCC5)c([N+](=O)[O-])c4)c(Oc4cnc5[nH]ccc5c4)c3)CC2)=C(c2ccc(Cl)cc2)C1 + CCN1CCN(Cc2ccc(Nc3ncc(F)c(-c4cc(F)c5nc(C)n(C(C)C)c5c4)n3)nc2)CC1
Qualitative Label: Criterion not met
--
Compound: Cn1nccc1Nc1nccc(-c2ccn(C(CO)c3ccc(Cl)c(F)c3)c(=O)c2)n1 (stereo not drawn) + CCN1CCN(Cc2ccc(Nc3ncc(F)c(-c4cc(F)c5nc(C)n(C(C)C)c5c4)n3)nc2)CC1
Qualitative Label: Criterion met
--
Compound: Cc1nc(NC(=O)N2CCCC2C(N)=O)sc1-c1ccnc(C(C)(C)C(F)(F)F)c1 (stereo not drawn) + CCN1CCN(Cc2ccc(Nc3ncc(F)c(-c4cc(F)c5nc(C)n(C(C)C)c5c4)n3)nc2)CC1
Qualitative Label: Criterion not met
--
Compound: Cn1ncc(Cl)c1-c1cc(C(=O)NC(CN)Cc2cccc(F)c2)sc1Cl (stereo not drawn) + CCN1CCN(Cc2ccc(Nc3ncc(F)c(-c4cc(F)c5nc(C)n(C(C)C)c5c4)n3)nc2)CC1
Qualitative Label: Criterion met
--
Compound: C=CCn1c(=O)c2cnc(Nc3ccc(N4CCN(C)CC4)cc3)nc2n1-c1cccc(C(C)(C)O)n1 + CCN1CCN(Cc2ccc(Nc3ncc(F)c(-c4cc(F)c5nc(C)n(C(C)C)c5c4)n3)nc2)CC1
Qualitative Label: Criterion met
